# system tested: 14-3-3β/CFTRpS753pS768 complex (Homo sapiens, UniProt P13569+P31946)
# Construct: His6 (cleaved yes); made in house; peptide synthetic
# Sequence (P31946 whole entry): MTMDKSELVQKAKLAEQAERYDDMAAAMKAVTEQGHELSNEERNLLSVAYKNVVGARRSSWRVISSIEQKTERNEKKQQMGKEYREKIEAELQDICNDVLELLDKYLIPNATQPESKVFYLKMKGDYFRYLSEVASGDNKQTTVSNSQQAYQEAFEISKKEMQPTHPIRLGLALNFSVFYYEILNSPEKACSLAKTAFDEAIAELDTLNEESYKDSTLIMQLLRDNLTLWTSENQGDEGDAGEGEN
# Sequence (P13569 747-774 limits assumed): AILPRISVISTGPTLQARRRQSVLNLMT
# test name: Dose-response fluorescence polarization (FP) assay, compound titration
# Assay type: binding
# measurement conditions: With 14-3-3; compound 7.6294e-9 M
Recorded FP signal values for a group of compounds are listed next.

compound	FP signal
NCCCC1NCc2ccccc2Sc2ccccc2CNC(=O)C(Cc2c[nH]c3ccccc23)NC(=O)C(Cc2ccccc2)NC1=O (stereo not drawn)	5
NCCCCC1NCc2ccccc2Sc2ccccc2CNC(=O)C(Cc2cccc(Cl)c2)NC(=O)C(Cc2ccc(O)cc2)NC1=O (stereo not drawn)	7
CN1CC(=O)NC(CCCNC(=N)N)C(=O)NC(CCC(N)=O)C(=O)NC(CCCNC(=N)N)C(=O)NCc2ccccc2-c2cccc(c2)C1 (stereo not drawn)	4
N=C(N)NCCCC1NC(=O)C(CCC(N)=O)NC(=O)C(CCCNC(=N)N)NC(=O)C2CCCN2Cc2cccc(c2)-c2ccccc2CNC1=O (stereo not drawn) [CY007458]	7
N=C(N)NCCCC1NCc2ccccc2Sc2ccccc2CNC(=O)C(Cc2ccc(O)cc2)NC(=O)C(CCCN)NC1=O (stereo not drawn)	4
N=C(N)NCCCC1NC(=O)C(CCCCN)NCc2ccccc2Sc2ccccc2CNC(=O)C(Cc2ccc(O)cc2)NC1=O (stereo not drawn)	3
N=C(N)NCCCC1NC(=O)C(CCC(N)=O)NC(=O)C(CCCNC(=N)N)NC(=O)C2CCCN2Cc2cccc(c2)-c2ccccc2CNC1=O (stereo not drawn) [CY007455]	5
C=CC(C)(C)OC[C@H]1O[C@H](O[C@@H]2C3=C([C@H](C)COC(C)=O)C[C@H](O)[C@]3(C)/C=C3/[C@@H](COC)CC[C@H]3[C@@H](C)[C@H]2O)[C@H](O)[C@@H](OC(C)=O)[C@@H]1O [FC-A, fusicoccin A, reference compound]	3
CC1NC(=O)C(CCCNC(=N)N)NC(=O)C2CCCN2Cc2cccc(c2)-c2ccccc2CNC(=O)C(CCCNC(=N)N)NC1=O (stereo not drawn)	5

====

# system tested: 14-3-3β/CFTRpS753pS768 complex (Homo sapiens, UniProt P13569+P31946)
# Construct: His6 (cleaved yes); made in house; peptide synthetic
# test name: Dose-response fluorescence polarization (FP) assay, compound titration
# Assay type: binding
# measurement conditions: With 14-3-3; compound 9.76563e-7 M
Recorded FP signal values for a group of compounds are listed next.
property: FP signal

compound	experimental value
CC1NC(=O)C(CCCNC(=N)N)NC(=O)C2CCCN2Cc2cccc(c2)-c2ccccc2CNC(=O)C(CCCNC(=N)N)NC1=O (stereo not drawn) [CY007476]	5
C=CC(C)(C)OC[C@H]1O[C@H](O[C@@H]2C3=C([C@H](C)COC(C)=O)C[C@H](O)[C@]3(C)/C=C3/[C@@H](COC)CC[C@H]3[C@@H](C)[C@H]2O)[C@H](O)[C@@H](OC(C)=O)[C@@H]1O [FC-A, fusicoccin A, reference compound]	5
NCCCC1NCc2ccccc2Sc2ccccc2CNC(=O)C(Cc2c[nH]c3ccccc23)NC(=O)C(Cc2ccccc2)NC1=O (stereo not drawn) [CY007345]	7
NCCCCC1NCc2ccccc2Sc2ccccc2CNC(=O)C(Cc2cccc(Cl)c2)NC(=O)C(Cc2ccc(O)cc2)NC1=O (stereo not drawn) [CY007288]	6
CN1CC(=O)NC(CCCNC(=N)N)C(=O)NC(CCC(N)=O)C(=O)NC(CCCNC(=N)N)C(=O)NCc2ccccc2-c2cccc(c2)C1 (stereo not drawn) [CY007491]	5
N=C(N)NCCCC1NCc2ccccc2Sc2ccccc2CNC(=O)C(Cc2ccc(O)cc2)NC(=O)C(CCCN)NC1=O (stereo not drawn) [CY007424]	7
